Molecular target: Rat TRPA1 expressing CHO cells (Rattus norvegicus, UniProt Q6RI86)
Construct: expressed in transfected cells; host or cells: CHO cells (Zeocin selection)
Sequence (Q6RI86 whole entry): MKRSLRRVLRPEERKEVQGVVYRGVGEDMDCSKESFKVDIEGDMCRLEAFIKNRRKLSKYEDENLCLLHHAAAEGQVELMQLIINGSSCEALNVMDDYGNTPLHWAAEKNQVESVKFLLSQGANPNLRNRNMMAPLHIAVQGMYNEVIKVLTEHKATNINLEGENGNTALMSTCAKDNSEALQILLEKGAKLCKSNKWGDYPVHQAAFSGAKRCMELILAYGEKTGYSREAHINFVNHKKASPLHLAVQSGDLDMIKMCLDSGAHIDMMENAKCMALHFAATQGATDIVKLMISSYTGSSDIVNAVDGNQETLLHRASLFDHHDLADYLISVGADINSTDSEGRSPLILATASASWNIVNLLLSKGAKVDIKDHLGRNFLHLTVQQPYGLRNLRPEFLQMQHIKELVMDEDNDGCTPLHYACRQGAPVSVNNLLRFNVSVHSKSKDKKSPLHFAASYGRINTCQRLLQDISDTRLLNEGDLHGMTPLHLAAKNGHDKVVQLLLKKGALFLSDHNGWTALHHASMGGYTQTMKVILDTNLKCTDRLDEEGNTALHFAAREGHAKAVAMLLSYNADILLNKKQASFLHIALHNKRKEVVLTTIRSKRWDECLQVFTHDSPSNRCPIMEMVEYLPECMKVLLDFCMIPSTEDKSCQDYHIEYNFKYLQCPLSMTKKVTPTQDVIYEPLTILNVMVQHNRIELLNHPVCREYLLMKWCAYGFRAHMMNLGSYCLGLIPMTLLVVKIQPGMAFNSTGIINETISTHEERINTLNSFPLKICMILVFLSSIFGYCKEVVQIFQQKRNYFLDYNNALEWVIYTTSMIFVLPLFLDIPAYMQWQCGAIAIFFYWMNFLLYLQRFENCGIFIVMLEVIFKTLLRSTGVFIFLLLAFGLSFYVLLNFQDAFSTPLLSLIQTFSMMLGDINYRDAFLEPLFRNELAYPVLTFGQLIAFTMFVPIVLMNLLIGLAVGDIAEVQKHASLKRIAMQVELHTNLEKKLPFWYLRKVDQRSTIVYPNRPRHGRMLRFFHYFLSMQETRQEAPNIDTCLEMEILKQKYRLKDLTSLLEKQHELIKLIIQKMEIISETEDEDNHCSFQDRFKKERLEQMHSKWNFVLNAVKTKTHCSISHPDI
Experiment: 45Calcium uptake assay, inhibition of AITC induced calcium uptake (rat)
Format: cell-based
Settings: rat TRPA1 CHO cells, AITC 10 μM, compound 10.0 μM; read-out: Percentage inhibition at 10.0 μM
readout_type: inhibition at 10 µM (%)

[
  {
    "smiles": "Cc1sc2c(c1CC(=O)Nc1nc(-c3ccc(OC(F)(F)F)c(F)c3)cs1)c(=O)n(C)c(=O)n2C",
    "assay_system": "Rat TRPA1 expressing CHO cells (Rattus norvegicus, UniProt Q6RI86)",
    "inhibition at 10 µM, %": 98.1
  },
  {
    "smiles": "Cn1c(=O)c2c(CC(=O)Nc3nc(-c4ccc(F)c(OC(F)(F)F)c4)cs3)csc2n(C)c1=O",
    "assay_system": "Rat TRPA1 expressing CHO cells (Rattus norvegicus, UniProt Q6RI86)",
    "inhibition at 10 µM, %": 100
  },
  {
    "smiles": "CCc1sc2c(c1CC(=O)Nc1nc(-c3ccc(C(F)(F)F)c(F)c3)cs1)c(=O)n(C)c(=O)n2C",
    "assay_system": "Rat TRPA1 expressing CHO cells (Rattus norvegicus, UniProt Q6RI86)",
    "inhibition at 10 µM, %": 97.3
  },
  {
    "smiles": "Cc1sc2c(c1CC(=O)Nc1nc(-c3cccc(F)c3F)cs1)c(=O)n(C)c(=O)n2C",
    "assay_system": "Rat TRPA1 expressing CHO cells (Rattus norvegicus, UniProt Q6RI86)",
    "inhibition at 10 µM, %": 99.7
  },
  {
    "smiles": "Cc1sc2c(c1CC(=O)Nc1nc(-c3ccc(F)cc3F)cs1)c(=O)n(C)c(=O)n2C",
    "assay_system": "Rat TRPA1 expressing CHO cells (Rattus norvegicus, UniProt Q6RI86)",
    "inhibition at 10 µM, %": 99.8
  },
  {
    "smiles": "Cn1c(=O)c2c(CC(=O)Nc3nc(-c4ccc(C(F)(F)F)c(F)c4)cs3)scc2n(C)c1=O",
    "assay_system": "Rat TRPA1 expressing CHO cells (Rattus norvegicus, UniProt Q6RI86)",
    "inhibition at 10 µM, %": 99.1
  },
  {
    "smiles": "Cn1c(=O)c2c(CC(=O)Nc3nc(-c4cc(F)cc(C(F)(F)F)c4)cs3)csc2n(C)c1=O",
    "assay_system": "Rat TRPA1 expressing CHO cells (Rattus norvegicus, UniProt Q6RI86)",
    "inhibition at 10 µM, %": 100
  },
  {
    "smiles": "Cn1c(=O)c2c(CC(=O)Nc3nc(-c4cc(F)c(C(F)(F)F)c(F)c4)cs3)csc2n(C)c1=O",
    "assay_system": "Rat TRPA1 expressing CHO cells (Rattus norvegicus, UniProt Q6RI86)",
    "inhibition at 10 µM, %": 98.7
  },
  {
    "smiles": "Cn1c(=O)c2c(CC(=O)Nc3nc(-c4ccc(Cl)c(Cl)c4)cs3)scc2n(C)c1=O",
    "assay_system": "Rat TRPA1 expressing CHO cells (Rattus norvegicus, UniProt Q6RI86)",
    "inhibition at 10 µM, %": 97.9
  }
]

---

Biological target: Human TRPA1 expressing CHO cells (Homo sapiens, UniProt O75762)
Construct: expressed in transfected cells; host or cells: CHO cells (G-418 selection)
Sequence (O75762 whole entry): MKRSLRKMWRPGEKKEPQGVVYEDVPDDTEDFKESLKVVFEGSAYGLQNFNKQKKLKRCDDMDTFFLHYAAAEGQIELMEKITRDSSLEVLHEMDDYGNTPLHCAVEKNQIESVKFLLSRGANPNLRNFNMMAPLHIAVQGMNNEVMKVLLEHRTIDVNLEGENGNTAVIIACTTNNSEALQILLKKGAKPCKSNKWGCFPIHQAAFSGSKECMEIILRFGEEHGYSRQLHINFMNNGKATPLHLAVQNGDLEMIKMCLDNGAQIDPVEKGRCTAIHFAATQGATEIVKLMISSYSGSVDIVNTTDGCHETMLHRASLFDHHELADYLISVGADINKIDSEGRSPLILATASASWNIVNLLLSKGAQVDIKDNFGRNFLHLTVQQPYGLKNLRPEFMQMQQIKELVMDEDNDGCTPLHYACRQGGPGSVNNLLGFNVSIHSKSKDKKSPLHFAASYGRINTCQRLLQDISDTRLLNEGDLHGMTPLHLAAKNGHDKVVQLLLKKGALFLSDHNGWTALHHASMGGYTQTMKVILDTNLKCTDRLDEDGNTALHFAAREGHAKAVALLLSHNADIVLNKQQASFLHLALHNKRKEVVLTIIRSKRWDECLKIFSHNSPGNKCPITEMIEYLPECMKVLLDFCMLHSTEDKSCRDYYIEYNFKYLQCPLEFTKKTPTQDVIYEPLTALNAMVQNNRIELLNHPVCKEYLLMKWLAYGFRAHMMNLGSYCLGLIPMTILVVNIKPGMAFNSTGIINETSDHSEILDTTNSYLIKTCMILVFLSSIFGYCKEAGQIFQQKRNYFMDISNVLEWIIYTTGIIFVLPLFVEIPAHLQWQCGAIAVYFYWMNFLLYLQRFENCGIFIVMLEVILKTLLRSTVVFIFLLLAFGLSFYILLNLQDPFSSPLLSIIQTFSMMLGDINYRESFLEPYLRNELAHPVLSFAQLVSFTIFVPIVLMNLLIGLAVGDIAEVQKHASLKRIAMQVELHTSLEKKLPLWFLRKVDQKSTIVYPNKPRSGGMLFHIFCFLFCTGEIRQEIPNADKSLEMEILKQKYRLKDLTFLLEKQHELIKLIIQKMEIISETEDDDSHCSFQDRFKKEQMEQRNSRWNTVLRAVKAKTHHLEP
Assay: 45Calcium uptake assay, inhibition of AITC induced calcium uptake (human)
Format: cell-based
Conditions: human TRPA1 CHO cells, AITC 30 μM, compound 10.0 μM; read-out: Percentage inhibition at 10.0 μM
Procedure: Screening for TRPA1 Antagonist Using the ^45Calcium Uptake Assay: The inhibition of TRPA1 receptor activation was measured as inhibition of allyl isothiocyanate (AITC) induced cellular uptake of radioactive calcium. Test compounds were dissolved in 100% DMSO to prepare 10 mM stock and then diluted using plain medium with 0.1% BSA and 1.8 mM CaCl2 to get the desired concentration. […] Radioactivity in the lysate was measured in a Packard TopCount after addition of liquid scintillant. […]
readout_type: inhibition at 10 µM (%)

[
  {
    "smiles": "Cn1c(=O)c2c(CC(=O)Nc3nc(-c4ccc(F)c(OC(F)(F)F)c4)cs3)csc2n(C)c1=O",
    "readout_type": "inhibition at 10 µM",
    "numeric_readout": 99.5
  },
  {
    "smiles": "Cc1sc2c(c1CC(=O)Nc1nc(-c3ccc(C(F)(F)F)c(F)c3)c[nH]1)c(=O)n(C)c(=O)n2C",
    "readout_type": "inhibition at 10 µM",
    "numeric_readout": 98
  },
  {
    "smiles": "CC(C)Cc1ccc(-c2csc(NC(=O)Cc3csc4c3c(=O)n(C)c(=O)n4C)n2)cc1",
    "readout_type": "inhibition at 10 µM",
    "numeric_readout": 99.5
  },
  {
    "smiles": "Cn1c(=O)c2c(CC(=O)Nc3nnc(-c4ccc(Br)cc4)s3)csc2n(C)c1=O",
    "readout_type": "inhibition at 10 µM",
    "numeric_readout": 74.6
  },
  {
    "smiles": "CCc1sc2c(c1CC(=O)Nc1nc(-c3ccc(C#N)cc3)cs1)c(=O)n(C)c(=O)n2C",
    "readout_type": "inhibition at 10 µM",
    "numeric_readout": 98.4
  },
  {
    "smiles": "Cn1c(=O)c2c(CC(=O)Nc3nc(-c4cccc(C(F)(F)F)c4F)cs3)csc2n(C)c1=O",
    "readout_type": "inhibition at 10 µM",
    "numeric_readout": 98.4
  },
  {
    "smiles": "CCc1sc2c(c1CC(=O)Nc1nc(-c3cc(F)c(OC(F)F)c(F)c3)cs1)c(=O)n(C)c(=O)n2C",
    "readout_type": "inhibition at 10 µM",
    "numeric_readout": 96.9
  },
  {
    "smiles": "Cn1c(=O)c2c(CC(=O)Nc3nc(-c4ccc(Cl)c(Cl)c4)cs3)csc2n(C)c1=O",
    "readout_type": "inhibition at 10 µM",
    "numeric_readout": 99.8
  }
]

---

Molecular target: Rat TRPA1 expressing CHO cells (Rattus norvegicus)
Assay: 45Calcium uptake assay, inhibition of AITC induced calcium uptake (rat)
Conditions: rat TRPA1 CHO cells, AITC 10 μM; read-out: Rat IC50 value (Range)
Description: Screening for TRPA1 Antagonist Using the ^45Calcium Uptake Assay: The inhibition of TRPA1 receptor activation was measured as inhibition of allyl isothiocyanate (AITC) induced cellular uptake of radioactive calcium. Test compounds were dissolved in 100% DMSO to prepare 10 mM stock and then diluted using plain medium with 0.1% BSA and 1.8 mM CaCl2 to get the desired concentration. […] Radioactivity in the lysate was measured in a Packard TopCount after addition of liquid scintillant. […]
pIC50: −log10 of the molar value.
readout_type: pIC50

[
  {
    "smiles": "Cn1c(=O)c2c(CC(=O)Nc3nc(-c4ccc(Cl)c(Cl)c4)cs3)csc2n(C)c1=O",
    "result": "6.30 to 7.30"
  },
  {
    "smiles": "CCc1sc2c(c1CC(=O)Nc1nc(-c3ccc(C(F)(F)F)c(F)c3)cs1)c(=O)n(C)c(=O)n2C",
    "result": "6.30 to 7.30"
  }
]

Checklist item: pIC50 tested on Rat TRPA1 expressing CHO cells (Rattus norvegicus), entry CCCc1sc2c(c1CC(=O)Nc1nc(-c3ccc(C(F)(F)F)c(F)c3)cs1)c(=O)n(C)c(=O)n2C , value?
6.30 to 7.30

Checklist item: pIC50 tested on Rat TRPA1 expressing CHO cells (Rattus norvegicus), entry Cc1sc2c(c1CC(=O)Nc1nc(-c3ccc(Cl)c(Cl)c3)cs1)c(=O)n(C)c(=O)n2C , value?
6.30 to 7.30

Checklist item: pIC50 tested on Rat TRPA1 expressing CHO cells (Rattus norvegicus), entry Cn1c(=O)c2c(CC(=O)Nc3nc(-c4ccc(C(F)(F)F)c(F)c4)cs3)csc2n(C)c1=O , value?
> 7.30

Checklist item: pIC50 tested on Rat TRPA1 expressing CHO cells (Rattus norvegicus), entry Cn1c(=O)c2c(CC(=O)Nc3nc(-c4cccc(C(F)(F)F)c4F)cs3)csc2n(C)c1=O , value?
6.30 to 7.30

Checklist item: pIC50 tested on Rat TRPA1 expressing CHO cells (Rattus norvegicus), entry Cc1sc2c(c1CC(=O)Nc1nc(-c3ccc(OC(F)(F)F)c(F)c3)cs1)c(=O)n(C)c(=O)n2C , value?
6.30 to 7.30

Checklist item: pIC50 tested on Rat TRPA1 expressing CHO cells (Rattus norvegicus), entry Cn1c(=O)c2c(CC(=O)Nc3nc(-c4ccc(OC(F)(F)F)c(F)c4)cs3)scc2n(C)c1=O , value?
6.30 to 7.30

Checklist item: pIC50 tested on Rat TRPA1 expressing CHO cells (Rattus norvegicus), entry Cc1sc2c(c1CC(=O)Nc1nc(-c3ccc(F)c(C(F)(F)F)c3)cs1)c(=O)n(C)c(=O)n2C , value?
6.30 to 7.30
